Reference source: the DeepSol protein solubility set

MEASUREMENT NOTES: soluble on expression in E. coli; label from the status in PepcDB or PDB records

PRIMARY SEQUENCE: MGSDKIHHHHHHMQDLNDIALFAAVVKHNGFSAAARDLNVPKSKLSKHVARLEEQLGVRLLERSTRKLRMTEVGRIFYEHAQGLLDGVAAAEAEIAAVRAEPTGVVRLACPIGFTPMLADILPAFHRRYPGVRLLITASNRRIDLIEERIDVALRARDQLDTDSQLIVRKFGEVRQRLAASPTLLARLGEITTDNLSQMPTLSMNEQHPNDVWRLVHATGGAIEIAHRPVVGCSDFLILERAAIEGMGIALLPDHICERAFRTGALVPVLPEWTSGNVMVHLVFPSRHGLLPATRALIDFLAENLIKALERCREVDPRPAASFEI
soluble on expression in E. coli: not soluble

PRIMARY SEQUENCE: MTHPRDSIALTSDSLVLRFLSESGIPISDNNKVRLLKSGREKFIDLFSAIRDAKHHIHLEYFNFRNDSIANALFDLLAEKVKEGVEVRAMFDAFGNWSNNKPLKKRHLKKIREQGIEIVKFDPFTFPYINHAAHRDHRKIAVIDGEVAYTGGMNIADYYINGLPKIGTWRDMHMRIEGDAVNDLQEIFLTIWNKETKQNIGGEAYFPKHKEQSDSTNVVVAIVDRTPKKNSRMLSHA
soluble on expression in E. coli: not soluble

PRIMARY SEQUENCE: MEKSLKNYKTLQQLFVRRLKAGVRPVDADEHTVVSPVDAVIEDMGTIRENCEMIVKGKPYSIAEMLGSVEAAQPYVNGFFFILYLSPSHYHRIHSPISGVIEKQWALGRKSYPVNRLGLKYGRRPLEKNYRLITEVTAGGKRLAIVKIGAMFVNSIELTHEGEQLVKGEEMAYFSFGSTVVLLFERGSFAPDPRIVAPMPIKVGERLGYWCEAHER
soluble on expression in E. coli: not soluble

PRIMARY SEQUENCE: MGSDKIHHHHHHMDEALRTYIRVVELQSFTKAAEELHISQPAVSLQLKKLEEIYETELIYRQAKKFILTATGEILYHRAKQLEGLYKQVEDEISLYHHHLKGRLRIGASFTIGEYFLPEVIAKFHALYPDITIELIIENTAKIADKVELLQVDTGLIEGQVSKKDLEISAFSDDEMCIVGRADGSLTEIEQGATWIAREEGSGTREYLDHVLSTNGWNVAEKVVAWSNMAVKQMVLEGMGYTVISKCVVQTEITSGKLQTFNEAGSLMRKFSVLKNRQRLENRIAETFLTFLKENQ
soluble on expression in E. coli: not soluble
